B1: tRNA (parent)
chain: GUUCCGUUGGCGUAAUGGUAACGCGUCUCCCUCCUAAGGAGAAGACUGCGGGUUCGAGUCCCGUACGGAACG

- Variants of: B1
- Assay comment: yeast fitness relative to wild type (ratio to wild type); higher = fitter; tRNA-Arg(CCU), competitive growth, 37 C, YPD
Fewer inactive variants are shown than the library holds.
Classification field: enter fulfilled for yeast fitness values not below 0.7, not fulfilled for values below it.

{"Variant annotation": "C11A A20U G38A A45C", "Group": "not fulfilled"}
{"Variant annotation": "C4G A14U U59G", "Group": "not fulfilled"}
{"Variant annotation": "G9C A15U C60G C61G G68C", "Group": "not fulfilled"}

Has U16A C29G C31G C62U A69C a recorded yeast fitness greater than or equal to 0.7?
not fulfilled

Has U13A C27G C34G G48C a recorded yeast fitness greater than or equal to 0.7?
not fulfilled

Has G12C C24U G48C G68A A69C a recorded yeast fitness greater than or equal to 0.7?
not fulfilled

Has G63U U64A a recorded yeast fitness greater than or equal to 0.7?
not fulfilled

Has U53C C60G a recorded yeast fitness greater than or equal to 0.7?
fulfilled

Has G12C A20U G25A A36G C46A U54A A70U a recorded yeast fitness greater than or equal to 0.7?
not fulfilled

Has C4G C31G A70C a recorded yeast fitness greater than or equal to 0.7?
not fulfilled

Has C24G C31A a recorded yeast fitness greater than or equal to 0.7?
not fulfilled
